Assay Text: clinical
Experimental Setup: human, plasma, iv, 10 nmol/kg body weight/min
Measurement Name: concentration at 10 min

Q: For O=NO [sodium nitrite] , what is its reported concentration at 10 min?
Ans: 370 to 480 nM
